# method notes: chemical genetic growth profiling, strain panel (AID 1159580);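 note: tested at 20 µM; growth read once vehicle control cultures reached saturation at 30 °C; 1 = growth at the plate median or of vehicle wells; lower values mean less growth of the strain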
# test parameters: S. cerevisiae deletion strains, growth OD, locus YPL078C, strain atp4, stronger effect = lower value
The campaign covered roughly 5,500 compounds. About 2,000 (36%) were called active. Not shown: some 18% with an inconclusive outcome. Some of the results follow.
Entries and their normalized growth
Please give only the number in your answer, with no unit.

Challenge: Which measured normalized growth value corresponds to "CCOC(=O)[C@H](CCc1ccccc1)N[C@@H](C)C(=O)N1[C@H](C(=O)O)C[C@@H]2CCC[C@@H]21" ?
Response given: 0.977

Challenge: Which measured normalized growth value corresponds to "Cc1cc(-c2ccccc2)nnc1NCCN1CCOCC1" ?
Response given: 0.989

Challenge: Which measured normalized growth value corresponds to "O=C(Cn1ccnc1[N+](=O)[O-])NCCO" ?
Response given: 1.01

Challenge: Which measured normalized growth value corresponds to CCCCCCCCCCCCCCCC(=O)OC1C(SC)OC(C(NC(=O)C2CC(CCC)CN2C)C(C)Cl)C(O)C1O (stereo not given) ?
Response given: 0.976

Challenge: Which measured normalized growth value corresponds to "O=C(O)CN1C(=O)c2cccc3cccc(c23)C1=O" ?
Response given: 0.976

This collection of values is drawn from PubChem BioAssay AID1159580.
